biological target: human OX2R (Homo sapiens (Human)); test: IPOne (IP-1) assay in CHO cells expressing human OX2R; format: cell-based; details: CHO cells expressing human OX2R; IP-One detection; 2 hours incubation; EC50 = inflection point of four parameter logistic fit; read-out: hOX2R_IP_IC50
measured.metric: pIC50
Give bare numbers, as −log10 of the molar value.

Solved cases (2 shown):
molecule	pIC50
COC(=O)N1[C@H](C)C[C@H](NS(C)(=O)=O)[C@@H]1COC1CCC2(c3ncc(C#N)cn3)CC2C1 (mixture of isomers)	6.71
CC(C)OC(=O)N1[C@H](C)C[C@H](NS(=O)(=O)CF)[C@@H]1COC1CCC2(c3ncc(Br)cn3)CC2C1 (single isomer, unassigned)	6.63

Hi there! I need pIC50 for each item below, if you can.
1. COC(=O)N1CC[C@H](NS(C)(=O)=O)[C@@H]1CO[C@H]1CC[C@@]2(c3ncccn3)C[C@H]2C1 (single isomer, unassigned) [Example 177]
2. COC(=O)N1[C@H](C)C[C@H](NS(C)(=O)=O)[C@@H]1COC1CCC2(c3ncccn3)CC2C1 (single isomer, unassigned) [Example 17]
3. COC(=O)N1[C@H](C)C[C@H](NS(C)(=O)=O)[C@@H]1CO[C@H]1CC[C@@]2(c3ncccn3)C[C@H]2C1 (single isomer, unassigned)
4. CCS(=O)(=O)N[C@H]1C[C@@H](C(F)F)N(C(=O)OC(C)C)[C@H]1CO[C@H]1CC[C@@]2(c3ncc(F)cn3)C[C@H]2C1 (single isomer, unassigned)
5. CC(C)OC(=O)N1[C@H](C)C[C@H](NS(=O)(=O)C(F)F)[C@@H]1CO[C@H]1CC[C@@]2(c3ncc(F)cn3)C[C@H]2C1 (single isomer, unassigned)

result:
1. 6.62
2. 5.65
3. 8.35
4. 9.00
5. 8.92

Hi there! I need pIC50 for each item below, if you can.
1. CC(C)OC(=O)N1[C@H](C)C[C@H](NS(=O)(=O)CF)[C@@H]1CO[C@H]1CC[C@@]2(c3ncc(Cl)cn3)C[C@H]2C1 (single isomer, unassigned)
2. COC(=O)N1[C@H](C(F)F)C[C@H](NS(=O)(=O)CF)[C@@H]1CO[C@H]1CC[C@@]2(c3ncc(Cl)cn3)C[C@H]2C1 (single isomer, unassigned)

result:
[8.74, 8.96]

Hi there! I need pIC50 for each item below, if you can.
1. COC(=O)N1[C@H](C)C[C@H](NS(C)(=O)=O)[C@@H]1COC1CC[C@@]2(c3nccs3)C[C@H]2C1 (single isomer, unassigned)
2. CC(C)OC(=O)N1[C@H](C)C[C@H](NS(C)(=O)=O)[C@@H]1CO[C@H]1CC[C@@]2(c3ncc(Cl)cn3)C[C@H]2C1 (single isomer, unassigned)

result:
[7.29, 8.36]

----------
biological target: human OX2R (Homo sapiens (Human), UniProt O43614); assay: IPOne (IP-1) assay in CHO cells expressing human OX2R; type: cell-based; settings: CHO, percentage of mean max effect of a reference compound at 1 uM (100% activity by comparison to Orexin A), human OX2R; read-out: Emax (%)
Sequence (O43614 whole entry): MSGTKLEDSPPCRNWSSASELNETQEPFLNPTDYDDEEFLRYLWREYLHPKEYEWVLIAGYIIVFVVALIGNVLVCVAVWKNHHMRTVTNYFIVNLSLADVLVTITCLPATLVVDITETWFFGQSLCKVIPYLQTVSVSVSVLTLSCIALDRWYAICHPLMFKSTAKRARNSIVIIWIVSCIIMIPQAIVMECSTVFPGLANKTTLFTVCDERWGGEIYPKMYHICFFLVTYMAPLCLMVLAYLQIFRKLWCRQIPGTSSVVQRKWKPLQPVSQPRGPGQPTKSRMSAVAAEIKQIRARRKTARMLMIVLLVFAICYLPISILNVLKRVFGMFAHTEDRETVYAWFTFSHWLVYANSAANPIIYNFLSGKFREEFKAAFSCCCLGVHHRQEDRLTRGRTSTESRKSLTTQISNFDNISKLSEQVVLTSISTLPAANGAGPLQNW
measured.metric: Emax
A complete answer gives the number followed by the unit.

Solved cases (5 shown):
compound	measured.metric	assay.result
CC(C)OC(=O)N1CCC[C@H](NS(=O)(=O)C(F)(F)F)[C@@H]1COC1CC[C@@]2(c3ncc(F)cn3)CC2C1 (stereo partly shown)	Emax	102%
C[C@@H]1C[C@H](NS(C)(=O)=O)[C@H](CO[C@H]2CC[C@@]3(c4ncc(F)cn4)C[C@H]3C2)N1C(=O)OC[C@H]1C[C@H]1F	Emax	102%
COC(=O)N1[C@H](C)C[C@H](NS(C)(=O)=O)[C@@H]1COC1CCC2(c3ncc(F)c(C(F)F)n3)CC2C1 (stereo partly shown)	Emax	90.7%
COC(=O)N1[C@H](C)C[C@H](NS(=O)(=O)CF)[C@@H]1COC1CCC2(c3ncc(Br)cn3)CC2C1 (stereo partly shown)	Emax	104%
COC(=O)N1[C@H](C)C[C@H](NS(=O)(=O)C(F)F)[C@@H]1CO[C@H]1CC[C@@]2(c3ncc(Cl)cn3)C[C@H]2C1	Emax	101%

Hi there! I need Emax for each item below, if you can.
1. COC(=O)N1[C@H](C)C[C@H](NS(=O)(=O)N(C)C)[C@@H]1COC1CCC2(c3ncccn3)CC2C1 (single isomer, unassigned) [Example 186]
2. CC(F)COC(=O)N1[C@H](C)C[C@H](NS(C)(=O)=O)[C@@H]1CO[C@H]1CC[C@@]2(c3ncc(F)cn3)C[C@H]2C1 (stereo partly shown)
3. COC(=O)N1[C@H](C)C[C@H](NS(=O)(=O)CF)[C@@H]1CO[C@H]1CC[C@@]2(c3ncc(Cl)cn3)C[C@H]2C1
4. COC(=O)N1CC[C@H](NS(C)(=O)=O)[C@@H]1CO[C@@H]1CC[C@]2(c3ncccn3)C[C@@H]2C1 (single isomer, unassigned)
5. COC(=O)N1[C@H](C)C[C@H](NS(C)(=O)=O)[C@@H]1COC1CCC2(c3ncc(F)cn3)CC2C1 (stereo partly shown)
6. COC(=O)N1[C@H](C)C[C@H](NS(=O)(=O)C2CC2)[C@@H]1CO[C@H]1CC[C@@]2(c3ncc(F)cn3)C[C@H]2C1

result:
1: 99.5%; 2: 103%; 3: 103%; 4: 94.7%; 5: 99.5%; 6: 103%

Hi there! I need Emax for each item below, if you can.
1. COC(=O)N1[C@H](C)C[C@H](NS(C)(=O)=O)[C@@H]1COC1CCC2(c3nccs3)CC2C1 (stereo partly shown)
2. COC(=O)N1[C@H](C)C[C@H](NS(=O)(=O)C(F)F)[C@@H]1CO[C@H]1CC[C@@]2(c3ncc(F)cn3)C[C@H]2C1

result:
1. 96.8%
2. 101%

----------
target: human OX2R (Homo sapiens (Human)); test: IPOne (IP-1) assay in CHO cells expressing human OX2R; assay type: cell-based; details: CHO, percentage of mean max effect of a reference compound at 1 uM (100% activity by comparison to Orexin A), human OX2R; read-out: Emax (%)
measured.metric: Emax (%)
Give bare numbers, in %.

compound	target.under.test	units.symbol	Emax
C[C@@H]1C[C@H](NS(C)(=O)=O)[C@H](CO[C@H]2CC[C@@]3(c4ncc(F)cn4)C[C@H]3C2)N1C(=O)OCC1(F)CCC1	human OX2R (Homo sapiens (Human))	%	104
C[C@@H]1C[C@H](NS(C)(=O)=O)[C@H](CO[C@H]2CC[C@@]3(c4ncc(F)cn4)C[C@H]3C2)N1C(=O)OCC1CC1(F)F (stereo partly drawn)	human OX2R (Homo sapiens (Human))	%	104
COC(=O)N1[C@H](C)C[C@H](NS(=O)(=O)N(C)C)[C@@H]1CO[C@H]1CC[C@@]2(c3ncc(F)cn3)C[C@H]2C1	human OX2R (Homo sapiens (Human))	%	99.4
COC(=O)N1[C@H](C)C[C@H](NS(=O)(=O)CF)[C@@H]1CO[C@H]1CC[C@@]2(c3ncc(F)cn3)C[C@H]2C1	human OX2R (Homo sapiens (Human))	%	99.2
COC(=O)N1[C@H](C)C[C@H](NS(=O)(=O)Cc2ccccc2)[C@@H]1CO[C@@H]1CC[C@]2(c3ncc(F)cn3)C[C@@H]2C1	human OX2R (Homo sapiens (Human))	%	92.7

Below: the item to evaluate.
query: Please look up its Emax: C[C@@H]1C[C@H](NS(C)(=O)=O)[C@H](CO[C@H]2CC[C@@]3(c4ncc(F)cn4)C[C@H]3C2)N1C(=O)OCC1(C)CC1(F)F (stereo partly drawn)
result: 102

----------
Task for the reader: assign each of the following compounds its reported Emax.
target: human OX2R (Homo sapiens (Human), UniProt O43614); assay: IPOne (IP-1) assay in CHO cells expressing human OX2R; format: cell-based; details: CHO, percentage of mean max effect of a reference compound at 1 uM (100% activity by comparison to Orexin A), human OX2R; read-out: Emax (%)
Numbers only, in %.

Solved cases (4 shown):
compound	measured.metric	assay.result
CC(C)OC(=O)N1[C@H](C)C[C@H](NS(=O)(=O)N(C)C)[C@@H]1CO[C@@H]1CC[C@]2(c3ncc(F)cn3)C[C@@H]2C1 (single isomer, unassigned)	Emax	102
COC(=O)N1[C@H](C)C[C@H](NS(=O)(=O)N(C)C)[C@@H]1COC1CCC2(c3cccc(F)c3)CC2C1 (mixture of isomers)	Emax	99.9
C[C@@H]1C[C@H](NS(C)(=O)=O)[C@H](CO[C@H]2CC[C@@]3(c4ncc(F)cn4)C[C@H]3C2)N1C(=O)O[C@H]1COC[C@@H]1F	Emax	104
C[C@@H]1C[C@H](NS(C)(=O)=O)[C@H](CO[C@H]2CC[C@@]3(c4ncc(F)cn4)C[C@H]3C2)N1C(=O)OCC(C)(F)F	Emax	101

Hi there! I need Emax for each item below, if you can.
1. COC(=O)N1[C@H](C(F)F)C[C@H](NS(=O)(=O)CF)[C@@H]1CO[C@H]1CC[C@@]2(c3ncc(F)cn3)C[C@H]2C1 (single isomer, unassigned)
2. COC(=O)N1[C@@H]2CCC[C@@H]2[C@H](NS(=O)(=O)CF)[C@@H]1COC1CCC2(c3ncc(F)cn3)CC2C1 (stereo partly drawn)

result:
1: 103; 2: 101
